FYI, the data here is from BigSolDB 2.1.

- Run Parameters: in ethylbenzene, 283.15 K
Parameter Measured: solubility (mole fraction)

Item under review: COc1cc(Cl)nc(N)n1 . Reported solubility (mole fraction)? 0.000887

====

- Run Parameters: in acetonitrile, 273.15 K
Parameter Measured: solubility (mole fraction)
Give the figure only, with no unit attached.

Given COc1cc(Cl)nc(N)n1 , state its recorded solubility (mole fraction). 0.00136

====

- Run Parameters: in ethylbenzene, 293.15 K
Parameter Measured: solubility (mole fraction)

Given the compound COc1cc(Cl)nc(N)n1 , what is its reported solubility (mole fraction)? 0.0015

====

- Run Parameters: in ethyl acetate, 303.15 K
Parameter Measured: solubility (mole fraction)

What value of solubility (mole fraction) has been reported for the following compound? COc1cc(Cl)nc(N)n1 0.0188

====

- Run Parameters: in acetonitrile, 288.15 K
Parameter Measured: solubility (mole fraction)

What does the data say about its solubility (mole fraction)? Entry: COc1cc(Cl)nc(N)n1 0.00276

====

- Run Parameters: in 1,4-dioxane, 293.15 K
Parameter Measured: solubility (mole fraction)
Form: value (number only, do not type unit).

GET /values?readout=solubility (mole fraction)&item= COc1cc(Cl)nc(N)n1 0.0316

====

- Run Parameters: in acetonitrile, 318.15 K
Parameter Measured: solubility (mole fraction)

Recorded solubility (mole fraction) for COc1cc(Cl)nc(N)n1 , please? 0.00927

====

- Run Parameters: in 1,4-dioxane, 323.15 K
Parameter Measured: solubility (mole fraction)

Quick one: solubility (mole fraction) for COc1cc(Cl)nc(N)n1 ? 0.0746

====

- Run Parameters: in ethanol, 293.15 K
Parameter Measured: solubility (mole fraction)
Returns: the value as a bare number; no unit string appended.

Sample COc1cc(Cl)nc(N)n1 — what was its solubility (mole fraction)? 0.00323

====

- Run Parameters: in acetonitrile, 298.15 K
Parameter Measured: solubility (mole fraction)
Respond numerically, and do not add a unit to the figure.

# query: solubility (mole fraction) of entry COc1cc(Cl)nc(N)n1 0.00426

====

- Run Parameters: in ethylbenzene, 298.15 K
Parameter Measured: solubility (mole fraction)
Quick one: just the number, no unit, thanks!

For the compound shown here, COc1cc(Cl)nc(N)n1 , give the reported solubility (mole fraction). 0.00184

====

- Run Parameters: in acetonitrile, 293.15 K
Parameter Measured: solubility (mole fraction)
Lab note: record just the number, no unit beside it.

Field request: solubility (mole fraction) | item: COc1cc(Cl)nc(N)n1 0.00345

====

- Run Parameters: in chloroform, 293.15 K
Parameter Measured: solubility (mole fraction)
Provide a numeric answer; units are not to be included.

Param item = COc1cc(Cl)nc(N)n1 ; retrieve measured solubility (mole fraction). 0.00612

====

- Run Parameters: in ethyl acetate, 298.15 K
Parameter Measured: solubility (mole fraction)

What value of solubility (mole fraction) has been reported for the following molecule? COc1cc(Cl)nc(N)n1 0.0155

====

- Run Parameters: in acetone, 283.15 K
Parameter Measured: solubility (mole fraction)
Answer with a number only.

# solubility (mole fraction) lookup, item COc1cc(Cl)nc(N)n1 0.0117

====

- Run Parameters: in isopropanol, 298.15 K
Parameter Measured: solubility (mole fraction)

I have this molecule here, COc1cc(Cl)nc(N)n1 , and I need its recorded solubility (mole fraction). 0.00377
